Sourced from the NIST ThermoML archive (doi:10.1021/acs.jced.8b00725)

- CONDITION_PARAMETERS: 348.15 K; 100 kPa; Liquid; Vibrating tube method
Below, each of the molecules is paired with its reported mass density value.

>  <MOLECULE>
CC[NH+](CC)CC.O=S(=O)([O-])C(F)(F)F [triethylammonium trifluoromethanesulfonate]

>  <mass density / kg/m3>
1224.73

$$$$
>  <MOLECULE>
CCC(=O)[O-].OCC[NH+](CCO)CCO [triethanolammonium propanoate]

>  <mass density / kg/m3>
1105.29

$$$$
>  <MOLECULE>
CC[NH+](CC)CC.O=C([O-])C(F)(F)F [triethylammonium trifluoroacetate]

>  <mass density / kg/m3>
1120.6

$$$$
>  <MOLECULE>
CC[NH+](C)C.O=C([O-])C(F)(F)F [N,N-dimethyl-N-ethylammonium trifluoroacetate]

>  <mass density / kg/m3>
1165.69

$$$$
>  <MOLECULE>
CCN(CC)CC.O=P(O)(O)O [triethylammonium dihydrogen phosphate]

>  <mass density / kg/m3>
1324.69

$$$$
>  <MOLECULE>
CC[NH2+]CC.O=S(=O)([O-])O [diethylammonium hydrogen sulfate]

>  <mass density / kg/m3>
1348.31

$$$$
>  <MOLECULE>
CCN(CC)CC.O=C(O)c1ccccc1O [triethylammonium salicylate]

>  <mass density / kg/m3>
1063.54

$$$$
>  <MOLECULE>
O=C(O)c1ccccc1O.OCCN(CCO)CCO [triethanolammonium salicylate]

>  <mass density / kg/m3>
1236.44

$$$$
>  <MOLECULE>
CC[NH+](CC)CC.CS(=O)(=O)[O-] [triethylammonium methanesulfonate]

>  <mass density / kg/m3>
1084.22

$$$$
>  <MOLECULE>
O=S(=O)(O)O.OCCN(CCO)CCO [triethanolammonium hydrogen sulfate]

>  <mass density / kg/m3>
1408.87

$$$$
>  <MOLECULE>
CC[NH+](CC)CC.O=C([O-])c1ccccc1 [triethylammonium benzoate]

>  <mass density / kg/m3>
1064.18

$$$$
>  <MOLECULE>
CC[NH2+]CC.CS(=O)(=O)[O-] [diethylammonium methanesulfonate]

>  <mass density / kg/m3>
1107.86

$$$$
>  <MOLECULE>
CC(=O)O.CCN(CC)CC [triethylammonium acetate]

>  <mass density / kg/m3>
971.62

$$$$
>  <MOLECULE>
CC[NH2+]CC.O=C([O-])C(F)(F)F [diethylammonium trifluoroacetate]

>  <mass density / kg/m3>
1138.55

$$$$
